These measurements were taken from patent US8895526B2.

Documented Fold depletion in Mef across a set of molecules
System: immortalized murine embryonic fibroblasts (Mef)
ASSAY_SUMMARY: Pooled negative selection RNAi screening (deep sequencing)
Type: cell-based
APPLIED_CONDITIONS: deep sequencing reads, on dox compared to initial representation
Entry rule: numbers only, all in Fold.

MOLECULE	UNITS_OF_MEASURE	Fold depletion in Mef
Acsl1.3559: shRNA, SEQ ID NO: 88 (nucleic acid) TGCTGTTGACAGTGAGCGCCAGCATTTCACTTTACTGCAATAGTGAAGCCACAGATGTATTGCAGTAAAGTGAAATGCTGTTGCCTACTGCCTCGGA	Fold	1.45
Wnt10b.1717: shRNA, SEQ ID NO: 190 (nucleic acid) TGCTGTTGACAGTGAGCGCCTCGAATAGACTAAGATGAAATAGTGAAGCCACAGATGTATTTCATCTTAGTCTATTCGAGTTGCCTACTGCCTCGGA	Fold	1.35
Ptgs2.284: neutral control shRNA, SEQ ID NO: 211 (nucleic acid) TGCTGTTGACAGTGAGCGAAAGAATCAAATTACTGCTGAATAGTGAAGCCACAGATGTATTCAGCAGTAATTTGATTCTTGTGCCTACTGCCTCGGA	Fold	1.21
Pkm2.2154: shRNA, SEQ ID NO: 166 (nucleic acid) TGCTGTTGACAGTGAGCGCGCCCACCTGAATGTCAATAAATAGTGAAGCCACAGATGTATTTATTGACATTCAGGTGGGCATGCCTACTGCCTCGGA	Fold	1.92
Hpgd.1070: shRNA, SEQ ID NO: 132 (nucleic acid) TGCTGTTGACAGTGAGCGCAAACTAGGTTATAACCTATAATAGTGAAGCCACAGATGTATTATAGGTTATAACCTAGTTTTTGCCTACTGCCTCGGA	Fold	1.10

Suppose we examine the molecule BRAF.3750: neutral control shRNA, SEQ ID NO: 191 (nucleic acid) TGCTGTTGACAGTGAGCGCTAGCATAATGACAATTATTTATAGTGAAGCCACAGATGTATAAATAATTGTCATTATGCTAATGCCTACTGCCTCGGA ; what Fold depletion in Mef value has been reported?
1.08

Suppose we examine the molecule EG277089.605: shRNA, SEQ ID NO: 115 (nucleic acid) TGCTGTTGACAGTGAGCGCCTCAATCTCATTGGTGGCTTATAGTGAAGCCACAGATGTATAAGCCACCAATGAGATTGAGATGCCTACTGCCTCGGA ; what Fold depletion in Mef value has been reported?
2.02

Suppose we examine the molecule Myo7a.618: shRNA, SEQ ID NO: 149 (nucleic acid) TGCTGTTGACAGTGAGCGCCCGCCAGTACACCAACAAGAATAGTGAAGCCACAGATGTATTCTTGTTGGTGTACTGGCGGATGCCTACTGCCTCGGA ; what Fold depletion in Mef value has been reported?
4.42

Suppose we examine the molecule Fpr1.375: shRNA, SEQ ID NO: 124 (nucleic acid) TGCTGTTGACAGTGAGCGATTGGTTCATGTGCAAATTCATTAGTGAAGCCACAGATGTAATGAATTTGCACATGAACCAACTGCCTACTGCCTCGGA ; what Fold depletion in Mef value has been reported?
3.07
